test system: LOX IMVI; assay: NCI anticancer screening, Melanoma LOX IMVI; format: cell-based; conditions: Homo sapiens, read-out: % Growth Inhibition (GI %)
Hi there, I'd appreciate the recorded inhibition at 10 µM for every entry that follows.
The answer is to be given in %; state only the numeric part.

Prompt line: What inhibition at 10 µM value was documented for this molecule, O=C(c1nc2ccccc2[nH]1)[C@H]1[C@H](c2cccc(F)c2)C2CSCN2[C@]12C(=O)Nc1ccccc12 (stereo partly shown) ?
Response line: 87.5

Prompt line: What inhibition at 10 µM value was documented for this molecule, O=C(c1nc2ccccc2[nH]1)[C@H]1[C@H](c2ccco2)C2CSCN2[C@]12C(=O)Nc1ccccc12 (stereo partly shown) ?
Response line: 91.7

Prompt line: What inhibition at 10 µM value was documented for this molecule, O=C(c1nc2ccccc2[nH]1)[C@H]1[C@H](c2ccccc2O)C2CSCN2[C@]12C(=O)Nc1ccccc12 (stereo partly shown) ?
Response line: 89.2

Prompt line: What inhibition at 10 µM value was documented for this molecule, O=C(c1nc2ccccc2[nH]1)[C@H]1[C@H](c2ccc(C(F)(F)F)cc2)C2CSCN2[C@]12C(=O)Nc1ccccc12 (stereo partly shown) ?
Response line: 88.7
